ASSAYED_TARGET: TTC7A-FAM126A (1–308) heterodimer (UniProt Q9ULT0;Q9BYI3)
MEASUREMENT_NOTES: BLI
pKd: −log10 of the molar value.
PROPERTY_LABEL: pKd

Query: Find the recorded pKd belonging to His-tagged MBP-EFR3A (721–791) (domain or fragment) SNTEEITFEALKKAIDTSGMEEQEKEKRRLVIEKFQKAPFEEIAAQCESKANLLHDRLAQILELTIRPPPS and report it.
Response: ~9.52

Each recorded value in this set is attributed to paper PMC12747262.
